The origin of these recorded values is PubChem BioAssay.

Assay: viability profiling in RPMI8226 myeloma cells – cell-based, resazurin fluorescence, basal, 24 h, PK04 Diversity Set, profiling panel (AID 1180);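 also: RPMI8826 multiple myeloma cell line at 5000 cells per well; test concentration not given here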
Conditions: higher = more signal
readout-type: z-score
Please give the numeric answer without any surrounding text.

{"columns": ["compound", "z-score"],
 "data": [
  ["CN(C)C(=O)[C@]1(Cc2ccccc2)N=C(c2ccc(OCCCO)cc2)O[C@@H]1c1ccccc1N=[N+]=[N-]", -2.58],
  ["CN1C(=O)C2C=CC(C(O)c3ccc(F)cc3)N(N(c3ccccc3)c3ccccc3)C2C1=O (configuration not stated)", -1.36],
  ["O=C(NCc1ccccc1)[C@@H]1c2ccccc2C(=O)N(C2Cc3ccccc3C2)[C@H]1c1ccc(CO)cc1", 0.12],
  ["COCCOC(=O)N1C(=O)[C@@]2(c3cc(C#CC4(O)CCCCCC4)ccc31)[C@H](c1ccccc1OCCO)N1[C@H](c3ccccc3)[C@H](c3ccccc3)OC(=O)[C@H]1[C@@H]2C(=O)N1CCc2cc(OC)c(OC)cc2C1", -0.203],
  ["O=C1NC(=O)C2C1C=CC(C(O)c1ccc(I)cc1)N2Nc1ccccn1 (configuration not stated)", -1.01]
]}

Data request: Please give the measured z-score for this compound: CC(C)CCC[C@@H](C)[C@H]1CC[C@@]2(C)C3=C(CC[C@]12C)[C@@]1(C)CC[C@H](OC(=O)c2ccc(C(F)(F)F)nc2)C(C)(C)C1CC3 (some centres not stated)
Data returned: 0.605

Data request: Please give the measured z-score for this compound: `COCC(=C=CC[C@H](O)c1cccc(OCCO)c1)CCO`
Data returned: 0.557

* * *

Assay: probe aNOTCH3 binding on compound microarray – biochemical, small-molecule microarray, 635/667 nm fluorescence, primary screen (AID 1120);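 also: probe is a biotin-tagged antibody raised against NOTCH3 rather than NOTCH3 protein; score merges spot fluorescence near 667 nm with spot signal to noise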
Conditions: higher = more signal
readout-type: composite z-score
Please give the numeric answer without any surrounding text.

Answered examples (5):
{"columns": ["compound", "composite z-score"],
 "data": [
  ["CO[C@H]1O[C@H](CO)[C@@H](OC(=O)Nc2ccc(Oc3ccccc3)cc2)[C@H](OC(=O)Nc2ccc3c(c2)OCO3)[C@@H]1OC(=O)Nc1ccc2c(c1)OCO2", 0.327],
  ["CO[C@H]1O[C@H](CO)[C@@H](OC(=O)Nc2cccc(F)c2)[C@H](OC(=O)Nc2ccccc2)[C@H]1OC(=O)Nc1ccccc1", 0.146],
  ["C=CCC(OC(C)=O)[C@@H]1[C@@H](N(Cc2cc3ccccc3o2)C(=O)Cc2ccc(OC)cc2)c2cc(OCCCO)ccc2N1C(=O)c1ccc2ccccc2c1 (stereo partly specified)", -0.0485],
  ["O=C(O)[C@H](Cc1ccccc1)n1cc(-c2ccccc2)nn1", -0.0313],
  ["CCCC=C(CCC)[C@@H](NC(=O)OCC(C)C)c1ccccc1", 1.03]
]}

Data request: Please give the measured composite z-score for this compound: `COC(=O)[C@]1(Cc2ccccc2)N=C(c2ccc(OCCCO)cc2)O[C@@H]1c1ccccc1N=[N+]=[N-]`
Data returned: -0.0391

* * *

Target: Follistatin (Homo sapiens)
Assay: FST protein binding to printed compounds – biochemical, small-molecule microarray, 635/667 nm fluorescence, primary screen (AID 1132)
Conditions: 635 nm fluorescence, higher = more signal
readout-type: composite z-score
Please give the numeric answer without any surrounding text.

Answered examples (8):
{"columns": ["molecule", "measured-value"],
 "data": [
  ["CC(C)[Si](C#CCCCC#N)(Oc1ccccc1Br)C(C)C", 0.269],
  ["COc1ccccc1CN1C(=O)c2ccccc2[C@@]2(Cc3ccccc3N(CCCN(C)C)C2=O)[C@@H]1c1ccc(CO)cc1", 1.2],
  ["CC(C)[Si](C#CCCCC#N)(O[C@H](c1ccccc1)c1cn(Cc2cccc(Cl)c2)nn1)C(C)C", 1.13],
  ["CC(c1ccccc1)C(O)C1C=CC2C(=O)N(C)C(=O)C2N1NC(=O)OC(C)(C)C (centres undefined)", 0.696],
  ["O=C1C2C=CC(C(O)c3c(F)cccc3Cl)N(Nc3ccccc3F)C2C(=O)N1c1ccccc1 (centres undefined)", 1.09],
  ["CCCCC(O)C1C=CC2C(=O)N(C)C(=O)C2N1N1CCCCC1 (centres undefined)", 0.971],
  ["CC(c1ccccc1)C(O)C1C=CC2C(=O)N(c3ccccc3)C(=O)C2N1Nc1ccccc1 (centres undefined)", 1.03],
  ["NC(=O)N1C(=O)C2C(C1=O)C1C=C(CCCO)C2C(C2CC2)N1Cc1cc2c(cc1Br)OCO2 (centres undefined)", 0.246]
]}

Data request: # value lookup — system Follistatin (Homo sapiens), readout composite z-score, item CN1C(=O)C2C=CC(C(O)c3c(F)cccc3Cl)N(NC(=O)OC(C)(C)C)C2C1=O (centres undefined)
Data returned: 0.453

* * *

Overview of recorded composite z-score for various compounds
Test: probe aWnt5a binding to arrayed compounds – biochemical, biotinylated probe, 635/667 nm fluorescence, primary screen (AID 1113);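 also: score merges 667 nm fluorescence intensity with signal-to-noise per printed feature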
Conditions: small-molecule microarray, higher = more signal
Please give the numeric answer without any surrounding text.

Data request: Please give the measured composite z-score for this compound: `C=C[C@H](C)[C@@H](OC(=O)Nc1ccc(SC)cc1)c1ccc(O)c2ccccc12`
Data returned: -0.101

Data request: Please give the measured composite z-score for this compound: C=CCC(OC(C)=O)[C@@H]1[C@@H](N(Cc2ccc(-c3cccc(C(F)(F)F)c3)o2)C(=O)Cc2ccc(OC)cc2)c2cc(OCCCO)ccc2N1C(=O)c1ccc2ccccc2c1 (stereo not given in full)
Data returned: -0.124

Data request: Please give the measured composite z-score for this compound: `[N-]=[N+]=Nc1ccccc1[C@H]1OC(c2ccc(OCCCO)cc2)=N[C@@]1(Cc1ccccc1)C(=O)N1CCOCC1`
Data returned: -0.0748

Data request: Please give the measured composite z-score for this compound: `O=C1[C@@]23C=C(Br)[C@H](C[C@@H]2COC3)[C@]12CO2`
Data returned: 0.0388

* * *

Test: binders of probe aHhip on microarray, primary screen, stem cell growth factor project, biochemical, small-molecule microarray, fluorescence 635/667 (AID 1087);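 also: score merges spot fluorescence at 667nm with spot signal to noise ratio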
Details: higher = more signal
readout-type: composite z-score
Please give the numeric answer without any surrounding text.

Answered examples (5):
{"columns": ["compound", "measured-value"],
 "data": [
  ["C[C@H]1C2[C@H](Cc3ccccc3)NC(=O)[C@]23C(=O)NCC(=O)N2CCC[C@H]2C(=O)NC/C=C/CCC/C=C/C3[C@@H]2O[C@]12C (stereo partly specified)", -0.249],
  ["[N-]=[N+]=NCc1ccccc1[C@H]1OC(c2ccc(OCCCO)cc2)=N[C@@]1(Cc1ccccc1)C(=O)N1CCCCC1", -0.201],
  ["NC(=O)[C@@H]1[C@H]2C(=O)O[C@H](c3ccccc3)[C@H](c3ccccc3)N2[C@H](c2ccc(OCCO)cc2)[C@@]12C(=O)Nc1ccc(C#CC3=CCCCC3)cc12", -0.227],
  ["C[N+](C)(C)CCCCCCNC(=O)[C@H]1C[C@H]2C(=O)N[C@@H](Cc3ccccc3)C(=O)N2[C@H]1c1cccc(OCCO)c1", -0.0645],
  ["OB1C=CCC(CCc2ccccc2)O1 (stereo unspecified)", -0.132]
]}

Data request: Please give the measured composite z-score for this compound: CCOc1ccc(N2C(=O)CSC2c2cccc([N+](=O)[O-])c2)cc1 (stereo unspecified)
Data returned: -0.199

Data request: Please give the measured composite z-score for this compound: `[N-]=[N+]=Nc1ccccc1[C@H]1OC(c2ccc(OCCCO)cc2)=N[C@@]1(CCS(=O)(=O)c1ccccc1)C(=O)NCc1ccccc1`
Data returned: 0.258

Data request: Please give the measured composite z-score for this compound: NC(=O)N1C(=O)C2C(C1=O)C1C=C(CCCO)C2C(C2CC2)N1Cc1cc2c(cc1Br)OCO2 (stereo unspecified)
Data returned: -0.0994

Data request: Please give the measured composite z-score for this compound: `CC(C)(C)OC(=O)CC[C@]1(C(=O)NCCN2CCOCC2)COC(c2ccc(OCCCO)cc2)=N1`
Data returned: 0.0623

Data request: Please give the measured composite z-score for this compound: `C[N+](C)(C)CCCC[C@@H]1NC(=O)[C@@H]2C[C@H](C(=O)NCCCCCN)[C@H](c3ccc(O)cc3)N2C1=O`
Data returned: 0.266

* * *

Experiment: JC-1 mitochondrial signal, unstimulated adipocytes – cell-based, JC-1 fluorescence, 3T3-L1 adipocytes, 24 h, 100 nL compound, profiling panel (AID 1168); also: test concentration not given here
Settings: JC-1 mitochondrial fluorescence, higher = more signal, called active from +8 up or from −8 down
readout-type: z-score
Please give the numeric answer without any surrounding text.

Answered examples (5):
{"columns": ["compound", "z-score"],
 "data": [
  ["CCCCCCc1nc(-c2ccc(-c3ccc(Cl)c(Cl)c3)o2)c(C)c2c1[Si](C(C)C)(C(C)C)OC2", 0.113],
  ["C=C(/C(=C/C[C@H](OC(C)=O)c1ccc(OCCO)cc1)c1cc(C(=O)OC)ccc1OC)C(C)C", -0.0331],
  ["COCC(=C=CC[C@H](O)c1ccccc1OCCO)CCO", -0.624],
  ["O=c1cccc(-c2ccccc2Cl)o1", -0.428],
  ["CCCCN1CC=CC23O[C@@H]4/C=C\\CCCOC(=O)C4[C@H]2C(=O)N(CCCO)[C@@H]3C1=O (stereo partly specified)", 1.19]
]}

Data request: Please give the measured z-score for this compound: `COC(=O)[C@]1(CCC(=O)OC(C)(C)C)N=C(c2ccc(OCCCO)cc2)O[C@@H]1c1ccccc1`
Data returned: -0.205

Data request: Please give the measured z-score for this compound: `CCCC(=O)N(CCc1c[nH]c2ccccc12)[C@@H]1CC(C(=O)NCCO)=C[C@H](Oc2c(I)cc(CO)cc2OC)[C@H]1O`
Data returned: -0.937

Data request: Please give the measured z-score for this compound: `CCOC(=O)C1=C[C@@H](C(C)C)N(S(=O)(=O)c2ccc(C)cc2)[C@H]1c1ccccc1F`
Data returned: 0.227

Data request: Please give the measured z-score for this compound: `[N-]=[N+]=Nc1ccccc1[C@H]1OC(c2ccc(OCCCO)cc2)=N[C@@]1(Cc1ccccc1)C(=O)N1CCOCC1`
Data returned: 0.598

Data request: Please give the measured z-score for this compound: `C=CCOC(=O)[C@H]1[C@@H]2C(=O)O[C@@H](c3ccccc3)[C@@H](c3ccccc3)N2[C@@H](c2ccc(OCCOC(=O)[C@H]3C[C@H]4C(=O)N[C@@H](CCCCN(C)C)C(=O)N4[C@H]3c3cccc(OCCO)c3)cc2)[C@]12C(=O)Nc1ccc(I)cc12`
Data returned: -1.13

Data request: Please give the measured z-score for this compound: COc1cc2c(cc1O)C(c1cccs1)N(Cc1cccc(OC(F)(F)F)c1)CC2 (stereo unspecified)
Data returned: -0.019

Data request: Please give the measured z-score for this compound: `COCC(=C=CC[C@@H](O)c1ccc(OCCO)cc1)C[C@@H](O)c1ccccn1`
Data returned: -0.522

Data request: Please give the measured z-score for this compound: `COc1cc2c(cc1OC)CN(C(=O)[C@H]1[C@@H]3C(=O)O[C@@H](c4ccccc4)[C@@H](c4ccccc4)N3[C@@H](c3ccccc3OCCO)[C@]13C(=O)Nc1ccc(C#CCCO)cc13)CC2`
Data returned: 0.451

Data request: Please give the measured z-score for this compound: `CCCCC(=C=CC[C@@H](O)c1cccc(OCCO)c1)C[C@@H](O)c1ccccn1`
Data returned: 0.316

Data request: Please give the measured z-score for this compound: `C=CCN1Cc2ccccc2[C@@H]2OC(c3ccc(OCCCO)cc3)=N[C@]2(CCS(=O)(=O)c2ccccc2)C1=O`
Data returned: -0.303

Data request: Please give the measured z-score for this compound: `COCCOC(=O)N1C(=O)[C@@]2(c3ccccc31)[C@H](C(=O)N1CCc3cc(OC)c(OC)cc3C1)[C@H]1C(=O)O[C@H](c3ccccc3)[C@H](c3ccccc3)N1[C@@H]2c1ccc(O)cc1`
Data returned: 0.743
